Test system: barnyardgrass
Assay: Preemergent control of plant species
Type: in vivo, Echinochloa crusgalli
Details: Echinochloa crus-galli, pre-emergence, 336 h; 0.25 lb/acre; read-out: percent preemergent control
observed property: pest or weed control at 280.212 g/ha (%)
Numbers only; they are read as %.

Cc1cc(C)n2nc(S(=O)(=O)Nc3c(C)ccc(Cl)c3C)nc2n1; 70
O=S(=O)(Nc1c(F)cccc1F)c1nc2ncccn2n1; 0

Prompt: Provide pest or weed control at 280.212 g/ha value for the following compound: Cc1cccc([N+](=O)[O-])c1NS(=O)(=O)c1nc2nccc(C)n2n1
Completion: 0

Prompt: Provide pest or weed control at 280.212 g/ha value for the following compound: Cc1cc(C)n2nc(S(=O)(=O)Nc3ccccc3C(F)(F)F)nc2n1
Completion: 95

Prompt: Provide pest or weed control at 280.212 g/ha value for the following compound: COc1nc2nc(S(=O)(=O)Nc3c(C)cccc3Cl)nn2cc1C
Completion: 90

Prompt: Provide pest or weed control at 280.212 g/ha value for the following compound: Cc1cc(C(F)(F)F)n2nc(S(=O)(=O)Nc3c(F)cccc3F)nc2n1
Completion: 90

Prompt: Provide pest or weed control at 280.212 g/ha value for the following compound: Cc1ccn2nc(S(=O)(=O)N(C(=O)C(C)(C)C)c3c(F)cccc3F)nc2n1
Completion: 100

Prompt: Provide pest or weed control at 280.212 g/ha value for the following compound: Cc1cnc2nc(S(=O)(=O)Nc3c(Cl)ccc(C)c3Cl)nn2c1
Completion: 0

Prompt: Provide pest or weed control at 280.212 g/ha value for the following compound: COC(=O)c1cccc(C)c1NS(=O)(=O)c1nc2nccc(C)n2n1
Completion: 80
